Tested on: SW-620 colon
assay_overview: NCI-60 one-dose screen, 48 h
assay_context: 10 µM unless noted
The panel holds about 83,000 compounds, 20% with a hit somewhere; the sample as a whole holds those more often. Activity calls are given as the source filed them. Rule for the calls: active = growth percent below 10; inactive = the rest.
Outcomes: yes (1) (active), no (0) (inactive)

{"compound": "N[C@@H]1CCC[C@H]1NCCCCN1C(=O)c2cccc3cccc(c23)C1=O", "answer_label": "no (0)"}
{"compound": "CCCCN(CCCC)CCCn1c(=O)c2sc3ncccc3c2n2nnc(-c3ccccc3)c12", "answer_label": "no (0)"}
{"compound": "Fc1ccc(Nc2ccc3cc(OCCCN4CCOCC4)ccc3n2)cc1F", "answer_label": "no (0)"}
{"compound": "N#Cc1c(N)nc2c(nnn2-c2cccc(C(F)(F)F)c2)c1N", "answer_label": "no (0)"}
{"compound": "COc1cc2c(c(OC)c1OC)C(=O)/C(=C/c1cc(C)c(O)c(C)c1)S2", "answer_label": "no (0)"}
{"compound": "CCC(C)NCc1ccccc1 (stereo not given)", "answer_label": "no (0)"}
{"compound": "COc1ccc(/C(C)=C(\\c2ccc(Cl)cc2)c2ccc(OCCN(C)C)cc2)cc1F", "answer_label": "no (0)"}
{"compound": "CC(C)(C)CC(C)(C)Nc1c(-c2ccc(-c3ccccc3)cc2)nc2cnccn12", "answer_label": "no (0)"}
{"compound": "COc1cc(-c2ccc(-c3ccc(C(=N)N)nc3)s2)cc(OC)c1OC", "answer_label": "no (0)"}
{"compound": "Cc1cnc(Nc2ccc(N3CCN(C)CC3)cc2)nc1Nc1ccc(Cl)c(NS(=O)(=O)C(C)(C)C)c1", "answer_label": "yes (1)"}
